Value source: PubChem BioAssay (NCI)

Measured GI50, listed per entry.
# Test system: M14 melanoma
# Measurement Notes: NCI tumour cell line growth inhibition, 48 h

Below: 8 compounds and their reported GI50.
{"Compound": "COc1ccc(/C=C(/C(=O)N2CCCCC2)c2cc(OC)c(OC)c(OC)c2)cc1", "GI50": "0.478 µM"}
{"Compound": "COc1ccc2nc3c(n2c1)C(=O)C(=O)c1ccccc1-3", "GI50": "1.75 µM"}
{"Compound": "COc1cc2nccc(Oc3ccc(NC(=O)C4(C(=O)Nc5ccc(F)cc5)CC4)cc3)c2cc1OC(=O)c1ccc(N)cc1", "GI50": "2.79 µM"}
{"Compound": "COC(=O)[C@]12CC[C@@H](C)[C@H](C)[C@@H]1C1=CC[C@@H]3[C@@]4(C)C[C@@H](OC(C)=O)[C@H](O)[C@@](C)(CO)[C@@H]4[C@H](O)C[C@@]3(C)[C@]1(C)CC2", "GI50": "8.14 µM"}
{"Compound": "O=Cc1cn(Cc2ccccc2)c2ccccc12", "GI50": "43.4 µM"}
{"Compound": "COc1ccc2c(c1OC)C(=O)OC2C1c2c(c(N)c3c(c2OC)OCO3)CCN1C (centres undefined)", "GI50": "1.86 µM"}
{"Compound": "C=C(C)[C@@H]1CC[C@]2(C(N)=O)CC[C@]3(C)[C@H](CC[C@@H]4[C@@]5(C)C/C(=C/c6cccnc6)C(=O)C(C)(C)[C@@H]5CC[C@]43C)[C@@H]12", "GI50": "8.05 µM"}
{"Compound": "Cn1cc(C2=C(n3ccc4ccccc43)C(=O)NC2=O)c2ccccc21", "GI50": "> 25 µM"}

Could you now look at the following compound, please?
Prompt: What does the data say about its GI50? Entry: Fc1ccc(-c2ncn(C3CCNCC3)c2-c2ccnc(Oc3cccc(C(F)(F)F)c3)n2)cc1
Completion: 4.54 µM

----------
Measured TGI, listed per entry.
# Test system: KM12 colon
# Measurement Notes: NCI tumour cell line growth inhibition, 48 h

Prompt: What does the data say about its TGI? Entry: COc1ccc2c(c1)C(=O)C1(C2)[C@H](c2ccccc2)C2C(=O)c3cc(OC)ccc3C2[C@H]1c1ccccc1 (stereo not given in full)
Completion: > 100 µM

Prompt: What does the data say about its TGI? Entry: O=C(CCC1CCCCC1)NCc1ccc(C(=O)O)cc1
Completion: > 100 µM

Prompt: What does the data say about its TGI? Entry: O=C1c2ccccc2S(=O)(=O)N1CSC(=S)N1CCOCC1
Completion: > 100 µM

Prompt: What does the data say about its TGI? Entry: COc1cc2c3c(n(CCCN)c(=O)c2cc1OC)-c1ccc(N(C)C)cc1C3=O
Completion: 4.85 µM

Prompt: What does the data say about its TGI? Entry: COc1ccc(C2NC(=O)c3cc4c(cc3N2)OCO4)cc1 (stereo not given)
Completion: > 100 µM

Prompt: What does the data say about its TGI? Entry: CC1=CC(C)C(C)N(CC2=NCCN2)c2ccccc21 (stereo not given)
Completion: > 100 µM

Prompt: What does the data say about its TGI? Entry: CCCCc1ccc(Nc2nc3c(ncn3COCCBr)c(=O)[nH]2)cc1
Completion: > 100 µM

Prompt: What does the data say about its TGI? Entry: CCCCC1(C2c3ccccc3Oc3ccccc32)C(=O)N(c2ccccc2)N(c2ccccc2)C1=O
Completion: > 100 µM

Prompt: What does the data say about its TGI? Entry: Cc1oc2c(cc(O)c3ccccc32)c2cccc1-2
Completion: > 100 µM

Prompt: What does the data say about its TGI? Entry: CCC1c2[nH]c3ccccc3c2C[C@H]2C(=O)NC(Cc3c[nH]c4ccccc34)C(=O)N12 (stereo not given in full)
Completion: 43.4 µM

----------
# System: RPMI-8226 leukemia
# Measurement Notes: NCI tumour cell line growth inhibition, 48 h
Measured TGI, listed per entry.
Use µM as the unit, but write only the number.

Prompt: What does the data say about its TGI? Entry: O=C(Cc1cc(=O)oc2cc(O)ccc12)N/N=C/c1ccc(N(CCCl)CCCl)cc1
Completion: 43.6

Prompt: What does the data say about its TGI? Entry: CCCCCCCC/C(=C\C1=C(C)C(=O)C(OC)=C(OC)C1=O)C(=O)O
Completion: 49.9

Prompt: What does the data say about its TGI? Entry: COc1cc2c(cc1OCCCC(=O)Nc1cc(C(=O)Nc3cc(C(=O)Nc4cc(C(=O)NCCCN(C)C)n(C)n4)n(C)c3)n(C)c1)N=CC1CCCN1C2=O (centres undefined)
Completion: 82.8

Prompt: What does the data say about its TGI? Entry: CCOc1ccccc1C(=O)/C=C/c1cc2ccccc2[nH]c1=O
Completion: 0.991

----------
Measured GI50, listed per entry.
# System: COLO 205 colon
# Measurement Notes: NCI tumour cell line growth inhibition, 48 h

Below: 3 compounds and their reported GI50.
{"Compound": "COc1ccc2nc3c(n2c1)C(=O)C(=O)c1ccccc1-3", "Target": "COLO 205 colon", "GI50": "2.73 µM"}
{"Compound": "Fc1ccc(-c2ncn(C3CCNCC3)c2-c2ccnc(Oc3cccc(C(F)(F)F)c3)n2)cc1", "Target": "COLO 205 colon", "GI50": "3.83 µM"}
{"Compound": "CC(C)(C(=O)NCC(F)(F)C(F)(F)F)C(=O)N[C@@H]1C(=O)Nc2ccccc2-c2ccccc21", "Target": "COLO 205 colon", "GI50": "34 µM"}

Could you now look at the following compound, please?
Prompt: Query the reported GI50 for COLO 205 colon; item: COc1cc2c(cc1OCCCCCN1CCN(CCCCCOc3cc4c(cc3OC)C(=O)C3CCC[C@H]3C=N4)CC1)N=C[C@@H]1CCCC1C2=O (stereo partly specified)
Completion: 2.67 µM

----------
# System: SK-MEL-2 melanoma
# Measurement Notes: NCI tumour cell line growth inhibition, 48 h; in the data active means GI50 below about 0.43 µM; inactive means the rest
Could you please pick one outcome from this set? active, inactive

{"Molecule": "CCNC(=O)N1CCc2c(Cl)c3c(c(OC)c2[C@@H]1[C@H]1OCc2c1ccc(OC)c2OC)OCCO3", "Category": "inactive"}
{"Molecule": "Nc1c(C(=O)N/N=C/c2ccco2)cnn1-c1ccnc2c(C(F)(F)F)cccc12", "Category": "inactive"}
{"Molecule": "O=C1NC(=NCc2c(Cl)cccc2Cl)S/C1=C\\c1ccc2ncccc2c1", "Category": "inactive"}
{"Molecule": "O=C1C=CC2(NN=C(c3ccccc3)N2c2ccccc2)c2cccc(O)c21 (centres undefined)", "Category": "inactive"}
{"Molecule": "COc1ccc(/C=C/C(=O)Nc2cc(/C=C\\c3cc(OC)c(OC)c(OC)c3)cc(OC)c2OC)cc1OC", "Category": "inactive"}

Prompt: // return assay outcome for COc1ccc(C(O)c2cc3c(N)c(C(=O)Nc4ccccc4)sc3nc2C)cc1 (centres undefined)
Completion: active

Prompt: // return assay outcome for COC(=O)c1ccc(C2SC(C)C(=O)N2NC(=O)C(O)c2ccccc2)cc1 (centres undefined)
Completion: inactive

Prompt: // return assay outcome for COC(=O)C(C)NP(=O)(OCc1ccc(Cn2cnc3c(N)ncnc32)cc1)Oc1ccccc1 (centres undefined)
Completion: inactive

Prompt: // return assay outcome for CCCCCN1C(=O)/C(=c2\sc3n(c2=O)C2C(NN=3)N(CC)C(=O)N2CC)c2ccccc21 (centres undefined)
Completion: inactive

----------
# Tested on: OVCAR-8 ovarian
# Measurement Notes: NCI tumour cell line growth inhibition, 48 h
Measured TGI, listed per entry.

{"Molecule": "CN(C)CCNS(=O)(=O)N(C)C", "TGI": "> 100 µM"}
{"Molecule": "C[C@]12CCC(=O)C(O)=C1CCC2=O", "TGI": "> 100 µM"}
{"Molecule": "O=[N+]([O-])/C(C(Cl)=C(Cl)Cl)=C(\\Nc1cccc2ccccc12)n1nnc2ccccc21", "TGI": "> 100 µM"}
{"Molecule": "O=C1c2ccccc2CC12CCC1(CC2)OCCO1", "TGI": "> 100 µM"}
{"Molecule": "O=C(Nc1cc(Cl)c(Cl)cc1Cl)C(=O)C(C(=O)c1ccccc1)C1OC(=O)c2ccccc21 (stereo not given)", "TGI": "> 100 µM"}
{"Molecule": "N#Cc1c(=N)cc2c3ccccc3oc3c(C#N)c(N)[nH]c1c32", "TGI": "> 100 µM"}

Prompt: What does the data say about its TGI? Entry: COc1cc(-c2cc(-c3nc4ccc(F)cc4[nH]3)[nH]n2)cc(OC)c1OC
Completion: 5.03 µM

Prompt: What does the data say about its TGI? Entry: CCC(C)C1NC(=O)C(NC(=O)C(CC(C)C)N(C)C(=O)[C@@H]2C=CCN2C(=O)[C@H](C)O)C(C)OC(=O)[C@H](Cc2ccc(OC)cc2)N(C)C(=O)[C@@H]2CCCN2C(=O)[C@H](CC(C)C)NC(=O)C(C)C(=O)[C@H](C(C)C)OC(=O)CC1O (stereo not given in full)
Completion: 0.0386 µM

Prompt: What does the data say about its TGI? Entry: O=C1c2ccccc2C(=O)c2nc3c(O)cccc3cc21
Completion: > 100 µM

Prompt: What does the data say about its TGI? Entry: O=C1NC(N/N=C\C(O)C(O)C(O)C(O)CO)=N/C1=C\c1ccc(Cl)cc1 (stereo not given)
Completion: 5.63 µM
